# testSummary: Drug uptake in BALB/c mouse spleen at 25 mg/kg, po via gavage measured after 4 hrs post dose by […]
# Format: ADME, organism-based
# experimentalContext: read-out: Drug uptake
valueType: concentration at 4 h (µM)

smilesEntry | unitName | reported
O=C(N[C@@H](Cn1ccnc1)c1ccc(-c2ccc(F)cc2)cc1F)c1ccc(-c2nnc(-c3ccccc3)o2)cc1 | µM | 21
O=C(N[C@@H](Cn1ccnc1)c1ccc(-c2ccc(F)cc2)cc1Cl)c1ccc(-c2nnc(-c3ccccc3)o2)cc1 | µM | 6
O=C(N[C@@H](Cn1ccnc1)c1ccc(-c2ccccc2)cc1Cl)c1ccc(-c2nnc(-c3ccccc3)o2)cc1 | µM | 5

a. O=C(N[C@@H](Cn1ccnc1)c1ccc(-c2ccc(F)cc2)cc1Cl)c1ccc(-c2nnc(-c3ccccn3)o2)cc1
b. O=C(N[C@@H](Cn1ccnc1)c1ccc(Cl)cc1Cl)c1ccc(-c2nnc(-c3ccc(OCC(F)(F)F)cc3F)o2)cc1
Input: Identify the entry with the larger concentration at 4 h. Options: a and b Label of pick, please.
Output: b

Values from ChEMBL document CHEMBL4257584
